Recorded pKd values for a group of binders are listed next.
- MEASUREMENT_TARGET: T1, human interleukin-23 receptor (IL23R) (human, UniProt Q5VWK5 24-355, limits assumed)
- T1 construct: also called human IL23R
- T1 sequence (looked up): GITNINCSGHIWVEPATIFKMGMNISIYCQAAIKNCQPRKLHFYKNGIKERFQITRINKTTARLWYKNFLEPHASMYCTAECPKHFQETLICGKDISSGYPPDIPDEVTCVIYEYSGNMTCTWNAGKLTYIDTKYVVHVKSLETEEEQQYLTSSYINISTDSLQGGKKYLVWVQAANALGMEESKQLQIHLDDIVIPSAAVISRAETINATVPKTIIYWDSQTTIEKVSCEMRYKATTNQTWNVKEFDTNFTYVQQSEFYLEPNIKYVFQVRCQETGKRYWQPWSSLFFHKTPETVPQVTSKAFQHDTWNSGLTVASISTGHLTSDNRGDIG
- EXPERIMENTAL_PROTOCOL: SPR, scFv
Convention used: pKd is expressed as -log10 of the molar concentration.

Vκ2/VH2 consensus λ-capped, human IL23R specific scFv (scFv, scFv VL-linker-VH, made in E. coli; also called Vκ2VH2 capped) scFv: DIVMTQSPLSLPVTPGEPASISCQASENIYSFLAWYLQKPGQSPQLLIYSASKLAAGVPDRFSGSGSGTDFTLKISRVEAEDVGVYYCQQTNRYSNPDIYNVFGGGTKLTVLGGGGGSGGGGSGGGGSGGGGSQVQLKESGPALVKPTQTLTLTCTFSGIDFNSNYYMCWIRQPPGKALEWLACIYVGSHVNTYYANWAKGRLTISKDTSKNQVVLTMTNMDPVDTATYYCATSGSSVLYFKFWGQGTLVTVSS = 10.13
Vκ3/VH3 consensus (uncapped), human IL23R specific scFv (scFv, scFv VL-linker-VH, made in E. coli; Vκ framework IV (uncapped, full consensus); also called Vκ3VH3 uncapped) scFv: DIVLTQSPATLSLSPGERATLSCQASENIYSFLAWYQQKPGQAPRLLIYSASKLAAGVPARFSGSGSGTDFTLTISSLEPEDFAVYYCQQTNRYSNPDIYNVFGQGTKVEIKRGGGGSGGGGSGGGGSGGGGSEVQLVESGGGLVQPGGSLRLSCAASGIDFNSNYYMCWVRQAPGKGLEWVSCIYVGSHVNTYYANWAKGRFTISRDNSKNTLYLQMNSLRAEDTAVYYCATSGSSVLYFKFWGQGTLVTVSS = 10.40
Vκ2/VH5 consensus (uncapped), human IL23R specific scFv (scFv, scFv VL-linker-VH, made in E. coli; Vκ framework IV (uncapped, full consensus); also called Vκ2VH5 uncapped) scFv: DIVMTQSPLSLPVTPGEPASISCQASENIYSFLAWYLQKPGQSPQLLIYSASKLAAGVPDRFSGSGSGTDFTLKISRVEAEDVGVYYCQQTNRYSNPDIYNVFGQGTKVEIKRGGGGSGGGGSGGGGSGGGGSEVQLVQSGAEVKKPGESLKISCKGSGIDFNSNYYMCWVRQMPGKGLEWMGCIYVGSHVNTYYANWAKGQVTISADKSISTAYLQWSSLKASDTAMYYCATSGSSVLYFKFWGQGTLVTVSS = 9.52
Vκ2/VH1B consensus λ-capped, human IL23R specific scFv (scFv, scFv VL-linker-VH, made in E. coli; also called Vκ2VH1B capped) scFv: DIVMTQSPLSLPVTPGEPASISCQASENIYSFLAWYLQKPGQSPQLLIYSASKLAAGVPDRFSGSGSGTDFTLKISRVEAEDVGVYYCQQTNRYSNPDIYNVFGGGTKLTVLGGGGGSGGGGSGGGGSGGGGSQVQLVQSGAEVKKPGASVKVSCKASGIDFNSNYYMCWVRQAPGQGLEWMGCIYVGSHVNTYYANWAKGRVTMTRDTSISTAYMELSSLRSEDTAVYYCATSGSSVLYFKFWGQGTLVTVSS = 9.84
Vκ3/VH4 consensus λ-capped, human IL23R specific scFv (scFv, scFv VL-linker-VH, made in E. coli; also called Vκ3VH4 capped) scFv: DIVLTQSPATLSLSPGERATLSCQASENIYSFLAWYQQKPGQAPRLLIYSASKLAAGVPARFSGSGSGTDFTLTISSLEPEDFAVYYCQQTNRYSNPDIYNVFGGGTKLTVLGGGGGSGGGGSGGGGSGGGGSQVQLQESGPGLVKPSETLSLTCTVSGIDFNSNYYMCWIRQPPGKGLEWIGCIYVGSHVNTYYANWAKGRVTISVDTSKNQFSLKLSSVTAADTAVYYCATSGSSVLYFKFWGQGTLVTVSS = 9.91

Query binder follows.
INPUT: Find the recorded pKd belonging to Vκ1/VH5 consensus λ-capped, human IL23R specific scFv (scFv, scFv VL-linker-VH, made in E. coli; also called Vκ1VH5 capped) scFv: DIQMTQSPSSLSASVGDRVTITCQASENIYSFLAWYQQKPGKAPKLLIYSASKLAAGVPSRFSGSGSGTDFTLTISSLQPEDFATYYCQQTNRYSNPDIYNVFGGGTKLTVLGGGGGSGGGGSGGGGSGGGGSEVQLVQSGAEVKKPGESLKISCKGSGIDFNSNYYMCWVRQMPGKGLEWMGCIYVGSHVNTYYANWAKGQVTISADKSISTAYLQWSSLKASDTAMYYCATSGSSVLYFKFWGQGTLVTVSS and report it.
OUTPUT: 9.40
